# Test system: Fibroblast
# ASSAY PROTOCOL: Incucyte cell viability with human fibroblast; further: unitless GR value; below 1 slowed growth and below 0 cell loss
# Format: toxicity, cell-based
# ASSAY CONTEXT: 0 h, 10 µM, compound concentration 10 uM, replicate number 2
Strictly below -0.4 in Growth Rate: class 1. Otherwise: class 0.

MOLECULE	MEASURED ON	LABEL VALUE
O=C(Nc1ccc(OC(F)(F)Cl)cc1)c1cnc(N2CC[C@@H](O)C2)c(-c2ccn[nH]2)c1	Fibroblast	class 0
Cc1nc2cccnc2n2c(-c3cc(C(C)(C)O)ncc3Cl)nnc12	Fibroblast	class 0
COc1cccc(Cn2cc(C(=O)Nc3ccc(C)c(S(=O)(=O)N4CCOCC4)c3)c(-c3ccc(C)cc3)n2)c1	Fibroblast	class 0
O=C(O)CCCCCC[C@@H]1C(=O)NC(=O)N1CCC(O)C1CCCCC1 (stereo partly drawn)	Fibroblast	class 0
CO[C@H](C)CN1CC[C@@]2(C)c3ccc(O)cc3C[C@@H]1C2(C)C.Cl	Fibroblast	class 0

Shifting focus to the molecule that follows.
Does the reported Growth Rate of the following molecule sit strictly below -0.4? "C[C@H](CCC(=O)O)[C@H]1CC[C@H]2[C@@H]3CC[C@@H]4C[C@H](O)CC[C@]4(C)[C@H]3CC[C@]12C"
class 0

* * *

Consider the following molecules and their measured Growth Rate readings.
# Tested on: U2OS
# ASSAY PROTOCOL: Incucyte cell viability with U2OS; further: unitless GR value; below 1 slowed growth and below 0 cell loss
# Type: toxicity, cell-based
# ASSAY CONTEXT: human, 6 h, 10 µM, compound concentration 10 uM, replicate number 1
A bare number is all that is needed in reply.

// lookup Growth Rate for "CSc1nc2c(c(=O)n(C)c(=O)n2C)n1C"
0.84

Proceed to "Cn1cc(-c2ccc(-c3cncc(Cl)c3N3CCC4(CCNC4=O)CC3)cc2)cn1"
0.58

Proceed to "O=c1ccc2c(OCCCCOc3ccccc3)c3ccoc3cc2o1"
0.73

Proceed to "C/C(=C\C(=O)Nc1ccccc1C(=O)[O-])c1ccc2ccccc2c1.[Na+]"
0.69

Proceed to "C[C@]12CC[C@@H]3c4ccc(O)cc4CC[C@H]3[C@@H]1C[C@H]1OC(=O)C[C@]12O"
0.43

Proceed to "NCc1ccc(OCCCc2sc(-c3ccc4c(c3)/C(=N/Nc3nc5ccccc5s3)CCC4)nc2C(=O)O)cc1"
0.23

Proceed to C[C@@]1(Cc2ccc(C#N)cc2)C(=O)N(c2cc(Cl)cc(Cl)c2)c2ncc(C(=O)NC3(c4nc(C5CCC5)no4)CC3)n21 [BI 9446]
0.76

Proceed to CN(C)CCC[C@@]1(c2ccc(F)cc2)OCc2cc(C#N)ccc21 [ESCITALOPRAM]
0.62

Proceed to CC(C)S(=O)(=O)c1ccccc1Nc1nc(N[C@@H]2CCCN(CCCCCCCNC(=O)COc3cccc4c3C(=O)N(C3CCC(=O)N(C)C3=O)C4=O)C2)ncc1Cl (stereo not given in full)
0.42

* * *

# System: HEK-293T
# ASSAY PROTOCOL: Incucyte cell viability with HEK293T; further: unitless GR value; below 1 slowed growth and below 0 cell loss
# Format: toxicity, cell-based
# ASSAY CONTEXT: human, 12 h, 10 µM, compound concentration 10 uM, replicate number 1
VALUE KIND: Growth Rate
A bare number is all that is needed in reply.

> print(dat)
                           substance.smiles  recorded.measurement
1  CCOC(=O)c1cc2cc(-c3cc(C(=O)NCc4ccc(C(=O)O)cc4)nn3C)ccc2[nH]1                  0.98
2  CC(=O)c1ccc2c(c1)/C(=C(/NC1CCN(C)CC1)c1ccc3c(c1)OCO3)C(=O)N2                  -0.7
3  O=C(Nc1ccccc1Br)N[C@@H]1CCN(c2ccc(C(F)(F)F)cn2)C1                  0.76
4  CC(C)NC(=O)[C@H]1CCC[C@H]1Nc1nc(Nc2ccc(CN(C)C)cc2)ncc1Br.Cl                  -0.3

Next, consider the following molecule.
Quick check: Growth Rate on HEK-293T, item "CCc1cncnc1N1CCN(Cc2nc3cc(C(F)(F)F)ccc3[nH]2)CC1" ?
0.53
